test.system: Cyclin-dependent kinase 4/cyclin D1 (Homo sapiens, UniProt P11802+P24385)
Sequence (P11802 whole entry): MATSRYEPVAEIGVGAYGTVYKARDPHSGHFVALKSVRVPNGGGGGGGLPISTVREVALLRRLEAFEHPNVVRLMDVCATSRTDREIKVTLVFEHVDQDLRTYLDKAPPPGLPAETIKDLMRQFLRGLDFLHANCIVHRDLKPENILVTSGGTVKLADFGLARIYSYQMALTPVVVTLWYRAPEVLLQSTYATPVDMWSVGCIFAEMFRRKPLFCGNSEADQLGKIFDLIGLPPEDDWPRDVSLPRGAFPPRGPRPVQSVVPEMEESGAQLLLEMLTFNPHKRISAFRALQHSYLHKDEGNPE
Sequence (P24385 whole entry): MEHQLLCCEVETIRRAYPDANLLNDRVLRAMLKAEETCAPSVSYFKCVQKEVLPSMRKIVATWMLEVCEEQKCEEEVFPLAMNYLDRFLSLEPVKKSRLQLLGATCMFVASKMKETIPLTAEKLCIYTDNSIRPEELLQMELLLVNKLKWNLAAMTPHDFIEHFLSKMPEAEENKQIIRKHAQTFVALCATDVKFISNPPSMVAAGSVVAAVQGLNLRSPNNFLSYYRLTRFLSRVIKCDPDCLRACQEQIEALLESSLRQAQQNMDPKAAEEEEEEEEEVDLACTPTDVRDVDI
experiment.description: Mobility Shift Assay : The purpose CDK4/Cyclin D1 assay is to evaluate the inhibition (% inhibition, Kiapp and Ki values) in the presence of small molecule inhibitors by using a fluorescence based microfluidic mobility shift assay. CDK4/Cyclin D1 catalyzes the production of ADP from ATP that accompanies the phosphoryl transfer to the substrate peptide 5-FAM-Dyrktide (5-FAM-[…]) (SEQ ID NO:1). The mobility shift assay electrophoretically separates the fluorescently labeled peptides (substrate and phosphorylated product) following the kinase reaction. Both substrate and product are measured and the ratio of these values is used to generate % Conversion of substrate to product by the LabChip EZ Reader. […] The reaction was stopped after 195 minutes by the addition of 50 μL of 30 mM EDTA. Ki determinations were made from a plot of the fractional velocity as a function of inhibitor concentration fit to the Morrison equation with the enzyme concentration as a variable.
measurement.type: Ki (nM)

[[record]]
molecule = "CC(C)n1c([C@H](C)O)nc2c(F)cc(-c3cc(N[C@@H]4CCN(S(C)(=O)=O)C[C@H]4O)ncc3Cl)cc21 (single isomer, unassigned)"
measurement_type = "Ki"
reported_result = 0.1

